Experiment: yeast AGP1-GFP level changes, GLN3 branch – cell-based, multiplex flow cytometry, S. cerevisiae, primary screen (AID 1887);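 further: AGP1-GFP fusion strain of S. cerevisiae within a five-strain barcoded multiplex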
Settings: 3 h, at 10 µM, hits give high values
Results filed as inconclusive are left out. Peptide text beside a SMILES is read from it.
The following compounds are listed with their measured GFP response, % of DMSO values.

Compound: CCCC(=O)Nc1ccccc1NC(C)=O
GFP response, % of DMSO, %: 104
--
Compound: COc1cc2nc(N3CCN(C(=O)C4CCCO4)CC3)nc(N)c2cc1OC (configuration not stated)
GFP response, % of DMSO, %: 94
--
Compound: CCSC(SCC)[C@H](O)[C@@H](O)[C@H](O)[C@H](O)CO
GFP response, % of DMSO, %: 93.8
--
Compound: COc1ccc2cc(C(=O)Nc3ccc(S(N)(=O)=O)cc3)sc(=O)c2c1OC
GFP response, % of DMSO, %: 98.9
--
Compound: Oc1[nH]c2ccccc2c1C1=NCCCC1
GFP response, % of DMSO, %: 106
--
Compound: N/C(=N\OC(=O)CCCOc1ccc(Cl)cc1Cl)c1ccncc1
GFP response, % of DMSO, %: 92.4
--
Compound: Cc1cccc(OCC(=O)Nc2ccc(C(=O)NCC(C)C)cc2)c1
GFP response, % of DMSO, %: 115
--
Compound: COc1ccc(-c2cc(=O)oc3cc(OC(C)C(=O)O)ccc23)cc1 (configuration not stated)
GFP response, % of DMSO, %: 107
--
Compound: CC(=O)NC(CC(C)C)C(=O)NC(Cc1ccccc1)C(N)=O (stereo not drawn) (Ac-Leu-Phe-NH2; configuration not given here)
GFP response, % of DMSO, %: 103
--
Compound: OCCC1CN(Cc2nc(-c3ccccc3)cs2)CCN1Cc1ccc(F)cc1 (configuration not stated)
GFP response, % of DMSO, %: 104
--
Compound: CCCN(CCC)C(=O)C(CCC(=O)O)NC(=O)c1ccccc1 (configuration not stated)
GFP response, % of DMSO, %: 94.5
--
Compound: OC12CCCCC1C(c1ccc3c(c1)OCO3)N(Cc1cccc(F)c1)CC2 (configuration not stated)
GFP response, % of DMSO, %: 101
--
Compound: CN(C)[C@@H]1C(=O)C(C(=O)NCN2CCCC2)=C(O)[C@@]2(O)C(=O)C3=C(O)c4c(O)cccc4[C@@](C)(O)C3CC12 (some centres not stated)
GFP response, % of DMSO, %: 93.3
--
Compound: Cc1ccc(C2CC(c3cccs3)=NN2C(=O)c2ccco2)o1 (configuration not stated)
GFP response, % of DMSO, %: 87
--
Compound: Cc1cc(C)nc(NS(=O)(=O)c2ccc(N)cc2)n1
GFP response, % of DMSO, %: 104
--
Compound: CC(=O)CCc1c(C)c2cccc(C)c2[nH]c1=O
GFP response, % of DMSO, %: 98.8
--
Compound: CC(C)CN1CCN(Cc2ccc3ncccc3c2)CC1CCO (configuration not stated)
GFP response, % of DMSO, %: 103
--
Compound: COc1ccc(OC(C)C(=O)Nc2ccccc2F)cc1 (configuration not stated)
GFP response, % of DMSO, %: 99.3
--
Compound: Clc1ccc2c(c1)[C@H]1OCC[C@H]1[C@@H](c1ccco1)N2
GFP response, % of DMSO, %: 88.8
--
Compound: CCCCCC(=O)O[C@]1(C(C)=O)CC[C@H]2[C@@H]3CCC4=CC(=O)CC[C@]4(C)[C@H]3CC[C@@]21C
GFP response, % of DMSO, %: 98.1
--
Compound: O=C(NO)c1ccccc1O
GFP response, % of DMSO, %: 106
--
Compound: O=C(/C=C/c1c[nH]c2ccccc12)c1cccc2ccccc12
GFP response, % of DMSO, %: 94.9
--
Compound: CCOC(=O)N1c2ccccc2C=CC1OCC (configuration not stated)
GFP response, % of DMSO, %: 109
--
Compound: COc1ccc(C(C)N2CC34C=CC(O3)C(C(=O)OCC(C)C)C4C2=O)cc1 (configuration not stated)
GFP response, % of DMSO, %: 107
--
Compound: CCC(C(=O)OCCN(CC)CC)c1ccccc1 (configuration not stated)
GFP response, % of DMSO, %: 99.1
--
Compound: CC1(c2ccccc2)CC(C)(C)N2C(=O)C(=O)c3cccc1c32 (configuration not stated)
GFP response, % of DMSO, %: 95.7
--
Compound: CCn1c(N2CCN(CC(=O)c3c(C)n(C)c4ccc(OC)cc34)CC2)nc2c1c(=O)[nH]c(=O)n2C
GFP response, % of DMSO, %: 99.9
--
Compound: CC(=O)N1CCN(c2ccc(OC[C@H]3CO[C@](Cn4ccnc4)(c4ccc(Cl)cc4Cl)O3)cc2)CC1
GFP response, % of DMSO, %: 111
--
Compound: CCOC(=O)Cn1c(C)cc(=O)c2ccccc21
GFP response, % of DMSO, %: 103
--
Compound: COc1ccc(C(=O)Nc2cccnc2)cc1C(=O)Nc1cccnc1
GFP response, % of DMSO, %: 106
--
Compound: O=C(N/C(=C/C=C\c1ccccc1)C(=O)N1CCOCC1)c1ccc(Br)cc1
GFP response, % of DMSO, %: 115
--
Compound: COc1cc2oc(-c3ccc(O)cc3)cc(=O)c2c(OC)c1O
GFP response, % of DMSO, %: 98
